Measurement record for Glucocorticoid receptor (Homo sapiens, UniProt P04150); quantity recorded: pIC50.
pIC50: −log10 of the molar value.
Measure: pIC50

I: Cc1nn(CC(C)C)c(-c2ccc(F)cc2)c1-c1ccc2c(c1)NC(=O)CO2
II: CCn1nc(C)c(-c2ccc3c(c2)NC(=O)CO3)c1-c1ccc(F)cc1
Input line: // pick min by pIC50: I , II Record your answer as the label of the chosen record.
Output line: II
(II: 5.25, I: 6.41)

====

- Test name: AUC (0 to 24 hrs) in Sprague-Dawley rat at 3 mg/kg, po
- Format: ADME, organism-based
- Set-up: time < 24 hr, dose 3 mg/kg, route oral
- Measurement context: plasma
Measure: AUC(0-t) at 24 h (ng·h/mL)
Numeric answer only, unit ng·h/mL assumed.

Input line: // query AUC(0-t) at 24 h value for entry Cc1nn(CC(F)(F)CO)c(-c2ccc(F)cc2)c1-c1ccc2c(c1)NC(=O)CO2
Output line: 662
